- Measurement parameters: pH 2.7
Marks after values point to notes of the source that are not given here.
Assay readout: LogP

Need LogP of `CC(C)c1cccc(OC(=O)Nc2cccc(CO/N=C(/c3ccccc3)c3noc(=O)n3C)n2)c1` , thanks.
4.64 [a]

Need LogP of `Cn1c(/C(=N\OCc2cccc(NC(=O)CCCC[n+]3ccccc3)n2)c2ccccc2)noc1=O.O=C[O-]` , thanks.
1.67 [a]

Need LogP of `Cn1c(/C(=N\OCc2cccc(NC(=O)CCCCBr)n2)c2ccccc2)noc1=O` , thanks.
3.59 [a]

Need LogP of `Cn1c(/C(=N\OCc2cccc(NC(=O)CC3CCCC3)n2)c2ccccc2)noc1=O` , thanks.
3.92 [a]
